experiment: in vitro; conditions: human
readout_kind: CC50 at 72 h

INSERT INTO measurements (molecule, readout_kind, test_value) VALUES
  ('N=C(N)c1ccc(OCCCCCOc2ccc(C(=N)N)cc2)cc1', 'CC50 at 72 h', '< 400 nM');

###

assay: in vitro; conditions: human
readout_kind: CC50 at 72 h

INSERT INTO assay_data (molecule, test_value) VALUES
  ('N=C(N)c1ccc(OCCCCCOc2ccc(C(=N)N)cc2)cc1', '< 400 nM');

###

Sequence of the target: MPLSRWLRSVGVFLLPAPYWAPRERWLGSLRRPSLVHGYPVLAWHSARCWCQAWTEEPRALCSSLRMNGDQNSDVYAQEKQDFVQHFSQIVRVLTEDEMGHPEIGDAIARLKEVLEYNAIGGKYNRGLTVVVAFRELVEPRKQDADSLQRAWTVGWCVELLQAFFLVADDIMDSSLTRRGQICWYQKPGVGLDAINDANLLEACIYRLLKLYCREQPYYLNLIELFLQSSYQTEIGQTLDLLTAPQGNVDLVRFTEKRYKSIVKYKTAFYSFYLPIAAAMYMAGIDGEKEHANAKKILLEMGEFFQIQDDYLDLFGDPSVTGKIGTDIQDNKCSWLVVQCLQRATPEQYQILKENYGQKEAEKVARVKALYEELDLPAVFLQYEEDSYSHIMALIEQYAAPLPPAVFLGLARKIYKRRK
pIC50: −log10 of the molar value.
readout_kind: pIC50

INSERT INTO assay_data (molecule, readout_kind, test_value) VALUES
  ('N=C(N)c1ccc(-c2ccc(-c3ccc(C(=N)N)cc3)o2)cc1', 'pIC50', '~4.30');
